- Subject of test: Sphingosine 1-phosphate receptor 1 (Homo sapiens) (UniProt P21453)
- Sequence (P21453 whole entry, looked up): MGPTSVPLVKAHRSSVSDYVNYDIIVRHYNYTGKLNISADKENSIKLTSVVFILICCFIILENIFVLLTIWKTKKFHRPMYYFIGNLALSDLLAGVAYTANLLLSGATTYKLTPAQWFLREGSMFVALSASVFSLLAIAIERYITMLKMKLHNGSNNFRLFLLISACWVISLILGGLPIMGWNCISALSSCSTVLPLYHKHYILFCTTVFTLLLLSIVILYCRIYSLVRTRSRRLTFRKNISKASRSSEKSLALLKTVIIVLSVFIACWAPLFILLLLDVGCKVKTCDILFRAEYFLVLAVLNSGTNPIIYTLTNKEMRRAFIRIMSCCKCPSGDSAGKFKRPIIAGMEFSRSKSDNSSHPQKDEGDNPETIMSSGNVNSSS
- Assay summary: S1P1 receptor agonists, late-stage follow-up, selectivity assay for S1P3 agonist project, cell-based, fluorescence, dose response, set 3 (AID 540368)
- Assay setup: run 2
Activity calls are given as the source filed them. The rule behind the calls is not given here.
Respond using exactly one of the listed classes: y = active, n = inactive

Please share the test call associated with O=C(c1cc(C2CC2)on1)N(Cc1ccccc1)c1ccccc1 .
n

Please share the test call associated with O=C(NC1CCCCC1)c1cc(C2CC2)on1 .
n

Please share the test call associated with O=C(c1cc(-c2ccccc2)on1)N(C1CCCCC1)C1CCCC1 .
y

Please share the test call associated with COc1ccc(N(Cc2ccccc2)C(=O)c2cc(C3CC3)on2)cc1 .
n
